meta.source: patent US11371056B2

Test system: Pseudomonas fluorescens HPPD polypeptide (wild-type and mutants)
Run description: Coupled HPPD activity assay: turnover and residual turnover in crude HPPD polypeptide extracts with and without Cmpd. 1
Type: biochemical
Condition context: presence of 100 μM Cmpd. 1; changes in absorbance (OD) at 320 nm in the coupled assay, 30 min
Measured parameter: Residual turnover

Report Residual turnover, nothing else, for this molecule: SEQ ID NO:52 (protein, mutant HPPD polypeptide) MADLYENPMGLMGFEFIEFASPTPGTLEPIFEIMGFTKVATHRSKNVHLYRQGEINLILNNEPNSIASYFAAEHGPSVCGMAFRVKDSQKAYNRALELGAQPIHIDTGPMELNLPAIKGIGGAPLYLIDRFGEGSSIYDIDFVYLEGVERNPVGAGLKVIDHLTHNVYRGRMVYWANFYEKLFNFREARYFDIKGEYTGLTSKAMSAPDGMIRIALNEESSKGAGQIEEFLMQFNGEGIQHVAFLTDDLVKTWDALKKIGMRFMTAPGDEYYEMLEGRLPDHGEPVDQLQARGILLDGSSVEGDKRLLLQIFSERLMGPVFFEFIQRKGDDGFGPHSFKVLFESIERDQVRRGVLTAD
0.105
